experiment: Pharmacokinetics of intraperitoneal or intravenous injection in CD1 mice
Type: in vivo
assay-setup: male, CD1, mouse, plasma, ip, 10 mg/kg, IP 10 mg/kg, CD1 mice plasma, 0.25 h; read-out: Conc. (ng/mL) Mouse 1
measure-name: concentration at 0.25 h (ng/mL)

Cc1ncsc1-c1ccc(CNC(=O)[C@@H]2C[C@@H](O)CN2C(=O)[C@@H](NC(=O)COCCCOc2ccc(Nc3ncc(C(F)(F)F)c(NCc4cccc(N(C)S(C)(=O)=O)c4)n3)cc2)C(C)(C)C)cc1: 800
Cc1ncsc1-c1ccc(CNC(=O)[C@@H]2C[C@@H](O)CN2C(=O)[C@@H](NC(=O)CCOCCOc2ccc(Nc3ncc(C(F)(F)F)c(NCc4cccc(N(C)S(C)(=O)=O)c4)n3)cc2)C(C)(C)C)cc1: 521

P: Cc1ncsc1-c1ccc(CNC(=O)[C@@H]2C[C@@H](O)CN2C(=O)[C@@H](NC(=O)COCCOc2ccc(Nc3ncc(C(F)(F)F)c(NCc4cccc(N(C)S(C)(=O)=O)c4)n3)cc2)C(C)(C)C)cc1
Q: Cc1ncsc1-c1ccc(CNC(=O)[C@@H]2C[C@@H](O)CN2C(=O)[C@@H](NC(=O)CCOCCCOc2ccc(Nc3ncc(C(F)(F)F)c(NCc4cccc(N(C)S(C)(=O)=O)c4)n3)cc2)C(C)(C)C)cc1
R: CN(c1cccc(CNc2nc(Nc3ccc(OCCCOCCC(=O)NCCOc4cccc5c4C(=O)N(C4CCC(=O)NC4=O)C5=O)cc3)ncc2C(F)(F)F)c1)S(C)(=O)=O (centres unmarked)
Challenge: Arrange these compounds by their concentration at 0.25 h, starting with the largest number. # format: label list in the order the request specifies
Response given: Q, P, R
